Each recorded value in this set is attributed to ChEMBL document CHEMBL1123595.

- assay: Concentration required for inhibition of free fatty acid liberation in Canine myocardial lipase assay
- Type: tissue-based, Canis lupus familiaris, Myocardium
recorded metric: log10 of IC50 (log10 of the value in µM)
Recorded IC50 (log10, µM)

Below: 6 compounds and their reported log10 of IC50.
1. O=C(O)c1cccnc1 = 1.11
2. CCOC(=O)c1ccc(NC(=O)Oc2cccc3cccnc23)cc1 = 2.30
3. COc1ccccc1OC(=O)Nc1cccc2cccnc12 = 1.30
4. COc1ccccc1NC(=O)Oc1ccc2ncccc2c1 = 1.62
5. COc1ccccc1NC(=O)Oc1cccc2cccnc12 = 1.60
6. COc1ccccc1NC(=O)Oc1ccc2cccnc2c1 = 1.68

Continue with the next compound.
[Q] Quick check: log10 of IC50 of COc1ccccc1NC(=O)Nc1cccc2cccnc12 ?
[A] 1.86
